System: Bacillus subtilis
Assay: Antibacterial activity against Bacillus subtilis assessed as growth inhibition by microdilution broth susceptibility assay
Format: functional
Reported Metric: MIC (µg/mL)

| Compound | Study Target | Operator | Reported Value |
| --- | --- | --- | --- |
| Cc1c(-c2nn3c(-c4ccccc4)nnc3s2)[se]c2ncnc(Nc3ccc(F)c(Cl)c3)c12 | Bacillus subtilis | = | 50 |
| Cc1c(-c2nn3c(-c4ccc(O)cc4)nnc3s2)[se]c2ncnc(Nc3ccc(F)c(Cl)c3)c12 | Bacillus subtilis | = | 3.12 |
| O=C(O)c1cn(C2CC2)c2cc(N3CCNCC3)c(F)cc2c1=O [CIPROFLOXACIN] | Bacillus subtilis | = | 6.25 |
| Cc1ccc(-c2nnc3sc(-c4[se]c5ncnc(Nc6ccc(Cl)cc6)c5c4C)nn23)cc1 | Bacillus subtilis | = | 50 |
| Cc1c(-c2nn3c(-c4ccccc4)nnc3s2)[se]c2ncnc(Nc3ccc(Cl)cc3)c12 | Bacillus subtilis | > | 100 |
| Cc1ccc(-c2nnc3sc(-c4[se]c5ncnc(Nc6ccc(F)c(Cl)c6)c5c4C)nn23)cc1 | Bacillus subtilis | = | 12.5 |
| COc1ccc(-c2nnc3sc(-c4[se]c5ncnc(Nc6ccc(Cl)cc6)c5c4C)nn23)cc1 | Bacillus subtilis | = | 25 |
| COc1ccc(-c2nnc3sc(-c4[se]c5ncnc(Nc6ccc(F)c(Cl)c6)c5c4C)nn23)cc1 | Bacillus subtilis | = | 3.12 |
| Cc1c(-c2nn3c(-c4ccc([N+](=O)[O-])cc4)nnc3s2)[se]c2ncnc(Nc3ccc(Cl)cc3)c12 | Bacillus subtilis | > | 100 |
| Cc1c(-c2nn3c(-c4ccc([N+](=O)[O-])cc4)nnc3s2)[se]c2ncnc(Nc3ccc(F)c(Cl)c3)c12 | Bacillus subtilis | = | 100 |
| Cc1c(-c2nn3c(-c4ccc(O)cc4)nnc3s2)[se]c2ncnc(Nc3ccc(Cl)cc3)c12 | Bacillus subtilis | = | 3.12 |
